FYI, the data here is from ChEMBL document CHEMBL3120142.

In this section, each of the compounds is paired with its reported Tmax.
# assay.text: Tmax in Sprague-Dawley rat at 50 mg/kg, po by LC-MS/MS analysis
# Format: ADME, organism-based
# Set-up: dose 50 mg/kg, route oral
# condition.info: in vivo
Number only, in h; omit the unit.

Use the examples below as a reference point.
{"columns": ["smiles.str", "parameter", "experimental.value"],
 "data": [
  ["CCOC(=O)C1=C[C@@H](OC(CC)CC)[C@H](NC(C)=O)[C@@H](N/C(C)=N/O)C1", "Tmax", 1.37],
  ["CCC(CC)O[C@@H]1C=C(C(=O)O)C[C@H](NC(=N)N)[C@H]1NC(C)=O", "Tmax", 1.72],
  ["CCC(CC)O[C@@H]1C=C(C(=O)O)C[C@H](NC(C)=N)[C@H]1NC(C)=O", "Tmax", 0.733],
  ["CCOC(=O)C1=C[C@@H](OC(CC)CC)[C@H](NC(C)=O)[C@@H](NC(=N)N)C1", "Tmax", 1],
  ["Br.CCOC(=O)C1=C[C@@H](OC(CC)CC)[C@H](NC(C)=O)[C@@H](NC(C)=N)C1", "Tmax", 0.517]
]}

Pending compound:
## Input Which Tmax value is on record for "CCOC(=O)C1=C[C@@H](OC(CC)CC)[C@H](NC(C)=O)[C@@H](NC(N)=NO)C1" ?
## Output 1.52
